Tested on: GIPR (CHO-K1-hGIPR cells) (Homo sapiens)
Construct: host or cells: CHO-K1
Sequence (P48546 22-466): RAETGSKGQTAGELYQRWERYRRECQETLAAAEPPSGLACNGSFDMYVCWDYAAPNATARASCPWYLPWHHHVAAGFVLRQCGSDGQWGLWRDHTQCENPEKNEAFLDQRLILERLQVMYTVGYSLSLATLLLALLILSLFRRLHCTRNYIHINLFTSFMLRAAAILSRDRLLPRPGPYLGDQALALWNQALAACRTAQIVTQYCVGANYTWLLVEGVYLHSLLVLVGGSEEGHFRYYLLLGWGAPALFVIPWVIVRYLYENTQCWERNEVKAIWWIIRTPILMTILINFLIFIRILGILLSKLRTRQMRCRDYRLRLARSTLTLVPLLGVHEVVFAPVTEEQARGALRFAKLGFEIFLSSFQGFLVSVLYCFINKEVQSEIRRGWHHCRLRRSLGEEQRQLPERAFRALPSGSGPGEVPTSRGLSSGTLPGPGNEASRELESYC
Assay remarks: FACS binding assay
Stated conditions: competition with 20 nM GIP-057, 4° C. for 1 hour, read-out: pIC50 Category (converted)
*1 amine or outer side, *2 acyl side, *3 side chain or, on linkers, in order; H or OH if unused. Where a SMILES comes first, the peptide text is derived from it. Bridges are numbered along the chain shown (N, C = ends). [ ]: non-standard residue; d: D form. TBMB(SCH2CH2NH-DOTA) = O=C(O)CN1CCN(CC(=O)O)CCN(CC(=O)NCCSCc2cc(C[*:1])cc(C[*:2])c2)CCN(CC(=O)O)CC1; Suc = O=C(CCC(=O)[*:2])[*:1]
Assay endpoint: IC50

Req: Quote GIPR (CHO-K1-hGIPR cells) (Homo sapiens) IC50 for entry CC[C@H](C)[C@@H]1NC(=O)[C@H](CC(C)C)NC(=O)[C@@H](C)NC(=O)[C@@H](NC(=O)[C@@H](CC(C)C)NC(=O)[C@H](CCC(=O)O)NC(=O)[C@@H]2CCCN2C(=O)[C@H](Cc2c[nH]c3ccccc23)NC(=O)[C@H](Cc2c[nH]c3ccccc23)NC(=O)CCC(=O)O)CSCc2cc(CSCCNC(=O)CN3CCN(CC(=O)O)CCN(CC(=O)O)CCN(CC(=O)O)CC3)cc(c2)CSC[C@@H](C(N)=O)NC1=O [GIP-287] (Suc-WWPE[dL]C[dA]LIC-NH2; linker 6-10 via TBMB(SCH2CH2NH-DOTA)) .
Resp: > 1 µM
